Sourced from ChEMBL document CHEMBL1158711

Assay: Inhibition of TCDD-induced EROD activity in human HepG2 cells after 24 hrs
Type: cell-based
pIC50: −log10 of the molar value.
measure-name: pIC50

P. O=C1C(c2[nH]c3ccccc3c2C2=c3ccccc3=N/C2=C2\Nc3ccccc3C2=O)=Nc2ccccc21 [BISINDIGOTIN]
Q. CC(=O)N1/C(=C2\N=c3ccccc3=C2c2c(C3=Nc4ccccc4C3=O)[nH]c3ccccc23)C(=O)c2ccccc21
R. O=c1cc(-c2ccccc2)oc2c1ccc1ccccc12 [ALPHA-NAPHTHOFLAVONE]
Req: Rank the items above by pIC50, largest value first. Lab note: record answer as labels in requested order.
Resp: R, P, Q
